# reported normalized growth; entries follow
experiment: chemical genetic growth profiling, strain panel (AID 1159580);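 also: tested at 20 µM; growth read once vehicle control cultures reached saturation at 30 °C; 1 = growth at the plate median or of vehicle wells; lower values mean less growth of the strain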; conditions: S. cerevisiae deletion strains, growth OD, locus YNL233W, strain BNI4, hits give low values
Out of some 5,500 compounds screened, about 2,000 (36%) were called active. Another 18% or so got no clear call; they are omitted. The list shows a part of the results.
Format: numeric value only, no unit, no commentary.

Solved entries:
# molecule, normalized growth
measured = [
    ("NC[C@H]1O[C@H](OC2[C@@H](N)C[C@@H](N)[C@H](O[C@H]3O[C@H](CO)[C@@H](O)[C@H](N)[C@H]3O)[C@H]2O)[C@H](O)[C@@H](O)[C@@H]1O (stereo partly drawn)", 0.993),
    ("COc1nc(NC(C)C)nc(NC(C)C)n1", 1.01),
    ("CO[C@H]1[C@H](O)[C@@H](O[C@H]2CC[C@]3(C=O)C4CC[C@]5(C)[C@@H](C6=CC(=O)OC6)CC[C@]5(O)C4CC[C@@H]3C2)O[C@@H](C)[C@@H]1O (stereo partly drawn)", 0.999),
    ("CC12CCC3C(CCC4(O)CC(O)CCC34/C=N/NC(N)=O)C1(O)CCC2C1=CC(=O)OC1 (stereo not drawn)", 0.987),
    ("C[C@]12CCC3C(CC[C@]4(O)C[C@@H](O)CC[C@]34C=O)[C@@]1(O)CCC2C1=CC(=O)OC1 (stereo partly drawn)", 1.03),
]

What does the record list as normalized growth for C[C@@H]1CC[C@@]23CCC4(C)[C@@](C=CC5[C@@]6(C)CCC(=O)C(C)(C)C6CC[C@]54C)(OC2=O)C3[C@H]1C (stereo partly drawn) ?
1.03

Fill in the blank: the reported normalized growth of C[C@H]1O[C@@H](O[C@H]2[C@@H](O)C[C@H](O[C@H]3[C@@H](O)C[C@H](O[C@H]4CC[C@]5(C)C6CC[C@]7(C)[C@@H](C8=CC(=O)OC8)CC[C@]7(O)C6CC[C@@H]5C4)O[C@@H]3C)O[C@@H]2C)C[C@H](O)[C@@H]1O (stereo partly drawn) is ____.
0.977

I have this molecule here, `Nc1nc(/C(=C/CC(=O)O)C(=O)N[C@@H]2C(=O)N3C(C(=O)O)=CCS[C@H]23)cs1` , and I need its recorded normalized growth.
0.993

Quick check: normalized growth of CC(=O)OCC(=O)[C@@]1(O)CCC2C3C[C@H](C)C4=CC(=O)C=CC4(C)C3[C@@H](O)CC21C (stereo partly drawn) ?
1.01

Record request: normalized growth value, item C[C@H]1OC(O[C@H]2[C@@H](O)CC(O[C@H]3[C@@H](O)C[C@H](O[C@H]4CC[C@]5(C)C6CC[C@]7(C)[C@@H](C8=CC(=O)OC8)[C@@H](O)C[C@]7(O)[C@@H]6CC[C@@H]5C4)O[C@@H]3C)O[C@@H]2C)C[C@H](O)C1O (stereo partly drawn)
0.995

* * *

assay: chemical genetic growth profiling, strain panel (AID 1159580); details: S. cerevisiae deletion strains, growth OD, locus YER110C, hits give low values
Among all 5,500 compounds or so, about 2,000 (36%) were called active. About 18% were inconclusive and are not listed. The list shows a part of the results.
measureName: normalized growth
Keep the answer to the number alone.

Solved entries:
# compound, normalized growth
records = [
    ("CC(=O)N1CCCC1C(=O)O (stereo not given)", 1.03),
    ("N#Cc1c(Cl)cccc1Cl", 1),
]

// returns reported normalized growth for input `COc1cc(C(=O)O)cc(OC)c1OC`
1.03

What value of normalized growth has been recorded for this entry: Oc1ccc2c3c1OC1[C@@H](O)CC[C@@]4(O)[C@@H](C2)N(CC2CCC2)CC[C@]314 (stereo not given in full)
1.02

// normalized growth lookup, key: C[C@H]1O[C@@H](O[C@H]2[C@@H](O)C[C@H](O[C@H]3[C@@H](O)C[C@H](O[C@H]4CC[C@]5(C)C6C[C@@H](O)[C@]7(C)[C@@H](C8=CC(=O)OC8)CC[C@]7(O)C6CC[C@@H]5C4)O[C@@H]3C)O[C@@H]2C)C[C@H](O)[C@@H]1O (stereo not given in full)
0.961

Form field: reported normalized growth of CC12CCC3C(CCC4(O)CC(O)CCC34/C=N/NC(N)=O)C1(O)CCC2C1=CC(=O)OC1 (stereo not given)
0.963

Query: normalized growth; subject: `COC(=O)NC(=S)Nc1ccccc1NC(=S)NC(=O)OC`
1.02

* * *

experiment: chemical genetic growth profiling, strain panel (AID 1159580);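 also: tested at 20 µM; growth read once vehicle control cultures reached saturation at 30 °C; 1 = growth at the plate median or of vehicle wells; lower values mean less growth of the strain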; conditions: S. cerevisiae deletion strains, growth OD, locus YGR078C, strain PAC10, hits give low values
Screen size: about 5,500 compounds; about 2,000 (36%) were called active. Inconclusive results (about 18%) are left out. The list shows a part of the results.
measureName: normalized growth
# output: bare number, no unit

Which normalized growth value belongs to CCCCC(=O)O[C@]1(C(=O)CO)[C@@H](C)CC2C3CCC4=CC(=O)C=C[C@]4(C)[C@@]3(F)C(O)C[C@@]21C (stereo partly drawn) ?
0.969

# query: normalized growth of entry CC1=C2C(O)C(=O)OC3CC4C(C)(C)C(=O)C=C[C@]4(C)C(CC1)[C@]23C (stereo partly drawn)
1.05

Sample `NCCCCN` — what was its normalized growth?
0.999

Value lookup for normalized growth; key = CO[C@H]1[C@H](O)[C@@H](O[C@H]2CC[C@]3(C=O)C4CC[C@]5(C)[C@@H](C6=CC(=O)OC6)CC[C@]5(O)C4CC[C@@H]3C2)O[C@@H](C)[C@@H]1O (stereo partly drawn)
1

Quick one: normalized growth for CC12CCC3C(CCC4(O)CC(O)CCC34/C=N/NC(N)=O)C1(O)CCC2C1=CC(=O)OC1 (stereo not drawn) ?
0.991

Reported normalized growth, compound CC1CC(=O)Nc2ccccc2N1C(=O)c1ccc([N+](=O)[O-])cc1 (stereo not drawn) : ____
1.03

Name the reported normalized growth value associated with the compound `CCOC(=O)/C(C#N)=C/Nc1ccc2c(c1)OCO2`
0.98

Any idea what its normalized growth is? The compound is `N#CCS(=O)(=O)c1cccs1`
0.979

Consider the compound shown here: CCC(=O)O[C@]1(C(=O)CCl)[C@@H](C)CC2C3CCC4=CC(=O)C=C[C@]4(C)[C@@]3(F)[C@@H](O)C[C@@]21C (stereo partly drawn) What is its recorded normalized growth?
0.999

# query: normalized growth of entry `Nc1ccc(S(=O)(=O)Nc2ncccn2)cc1`
0.986

* * *

assay: chemical genetic growth profiling, strain panel (AID 1159580);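 also: tested at 20 µM; growth read once vehicle control cultures reached saturation at 30 °C; 1 = growth at the plate median or of vehicle wells; lower values mean less growth of the strain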; settings: S. cerevisiae deletion strains, growth OD, locus YOL012C, strain htz1
Out of some 5,500 compounds screened, about 2,000 (36%) were called active. Not shown: some 18% with an inconclusive outcome. The list shows a part of the results.
// boundary case: normalized growth equal to 1 maps to 0.0; strictly smaller maps to 1.0

# molecule, assignedClass
measured = [
    ("COC1=CC(C)[C@@H]2C[C@H]3OC(=O)C[C@H]4C(C)=C(OC)C(=O)C([C@@]34C)[C@@]2(C)C1=O (stereo partly specified)", 0.0),
    ("CC1=C2C(O)C(=O)OC3CC4C(C)(C)C(=O)C=C[C@]4(C)C(CC1)[C@]23C (stereo partly specified)", 1.0),
    ("CCn1nc(C(=O)O)c(=O)c2cc3c(cc21)OCO3", 0.0),
    ("CC1(C)[C@@H]2CC[C@@]1(C)C(=O)C2", 0.0),
    ("O=c1c(O)cccc2c(C3Oc4cc(O)cc(O)c4CC3O)cc(O)c(O)c12 (stereo unspecified)", 1.0),
    ("Nc1nc(/C(=C/CC(=O)O)C(=O)N[C@@H]2C(=O)N3C(C(=O)O)=CCS[C@H]23)cs1", 0.0),
]

Does the reported normalized growth of `CCCc1nn(C)c2c(=O)[nH]c(-c3cc(S(=O)(=O)N4CCN(C)CC4)ccc3OCC)nc12` stay below 1?
1.0

Dear colleague, could you confirm whether normalized growth of CC(=O)O[C@@H]1CC2C(C)(C)CCC[C@]2(C)C2CC[C@]3(C)C(=CC(=O)O[C@H]3c3ccoc3)[C@@]21C (stereo partly specified) falls below 1? Thanks.
1.0

Take the molecule `O=C(CCCN1CCC2(CC1)C(=O)NCN2c1ccccc1)c1ccc(F)cc1` and say whether its normalized growth is less than 1.
0.0

Consider `O=C(CCCN1CCC(O)(c2ccc(Cl)cc2)CC1)c1ccc(F)cc1` . Does its normalized growth lie strictly below 1?
0.0

Hello, I'm reviewing records and need to know if normalized growth of CC1(C)S[C@@H]2C(N3C(=O)[C@@H](c4ccccc4)NC3(C)C)C(=O)N2[C@H]1C(=O)O (stereo partly specified) is below 1. Could you check?
1.0

* * *

assay: chemical genetic growth profiling, strain panel (AID 1159580);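 also: tested at 20 µM; growth read once vehicle control cultures reached saturation at 30 °C; 1 = growth at the plate median or of vehicle wells; lower values mean less growth of the strain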; conditions: S. cerevisiae deletion strains, growth OD, locus YMR231W, strain pep5, hits give low values
In all, about 5,500 compounds went through this assay and about 2,000 (36%) were called active. Not shown: some 18% with an inconclusive outcome. The list shows a part of the results.
// values below are reported normalized growth
Respond using a number only.

Here are 3 compounds together with their reported answers.
# smilesRecord, normalized growth
data = [
    ("COc1ccc(-c2cc(=O)c3c(O)cc(O)c(-c4cc(-c5cc(=O)c6c(O)cc(O)cc6o5)ccc4OC)c3o2)cc1", 1),
    ("CC[C@@]1(O)C(=O)OCc2c1cc1n(c2=O)Cc2cc3ccccc3nc2-1", 0.268),
    ("CC[C@@]1(O)C(=O)OCc2c1cc1n(c2=O)Cc2cc3cc(O)ccc3nc2-1", 1),
]

// query normalized growth value for entry `NC(=O)c1ccc([N+](=O)[O-])cc1Cl`
0.98
